Biological target: LTD4 receptor (guinea pig lung receptors) (Cavia porcellus, UniProt Q2NNR5)
Construct: isolated from guinea pig lung membrane
Sequence (Q2NNR5 whole entry): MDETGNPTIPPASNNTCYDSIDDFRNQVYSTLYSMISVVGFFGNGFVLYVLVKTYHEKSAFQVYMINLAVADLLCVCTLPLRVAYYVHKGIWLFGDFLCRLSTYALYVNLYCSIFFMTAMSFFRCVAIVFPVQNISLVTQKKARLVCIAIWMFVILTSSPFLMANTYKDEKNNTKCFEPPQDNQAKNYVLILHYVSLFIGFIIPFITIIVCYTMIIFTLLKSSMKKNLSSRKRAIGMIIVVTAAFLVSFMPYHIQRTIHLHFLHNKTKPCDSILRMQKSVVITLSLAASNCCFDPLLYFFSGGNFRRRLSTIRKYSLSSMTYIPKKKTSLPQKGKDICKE
Experiment: Leukotriene Receptor Binding Assay (LTD4 receptor binding, guinea pig lung membrane)
Details: LTD4 binding to guinea pig lung membrane receptors; read-out: LTD4 antagonism: Receptor Binding Assay (IC50)
Protocol: Leukotriene Receptor Binding Assay The in vitro LTD4 receptor binding assay is carried out as follows: Specific binding of titrated LTD4 to a fixed number of guinea pig lung receptors, isolated from guinea pig lung membrane, is measured in the presence and absence of test compound. The initial screening dose (1×10^-5 M) is considered active if the specific binding of the LTD4 is reduced by 45% or more. Active compounds are tested in a dose-response manner to determine IC50 values.
Result type: pIC50
Value format note: pIC50 is -log10 of concentration (mol/L); just state the number.

Which measured pIC50 value corresponds to CCCc1c(OCCCSCC2COC3(CCC(CC(=O)O)C3)S2)ccc(C(C)=O)c1O (stereo not shown) ?
5.21

* * *

Target: LTB4 receptor (Homo sapiens)
Construct: Neutrophils are purified from venous blood of normal human donors; endogenous in cells
Sequence (Q15722 whole entry): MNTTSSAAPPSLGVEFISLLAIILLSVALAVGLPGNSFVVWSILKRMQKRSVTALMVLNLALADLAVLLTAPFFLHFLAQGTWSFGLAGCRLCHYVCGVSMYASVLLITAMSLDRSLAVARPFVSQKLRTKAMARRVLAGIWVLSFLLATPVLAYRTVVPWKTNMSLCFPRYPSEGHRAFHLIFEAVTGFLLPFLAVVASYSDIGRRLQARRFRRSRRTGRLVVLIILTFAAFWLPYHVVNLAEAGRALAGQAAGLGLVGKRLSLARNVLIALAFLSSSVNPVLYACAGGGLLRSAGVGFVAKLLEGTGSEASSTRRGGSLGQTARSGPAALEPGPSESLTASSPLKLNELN
Assay: LTB4 Receptor Binding Assay (human neutrophils)
Settings: 0.6 nano M (3H) LTB4, 0° C., 45 minutes, read-out: LTB4 antagonism: Receptor Binding Assay (IC50)
Result type: IC50
Please give the number followed by its unit.

Item under review: CCCc1c(OCCCSCC2COC3(CCC(CC(=O)O)C3)S2)ccc(C(C)=O)c1O (stereo not shown) . Reported IC50?
800 nM
